The reader will find reported IC50 values listed item by item below.
# ASSAY TARGET: HLA-DR13 (DRB1*1301) (Homo sapiens, UniProt P01903+P01911, A100E/A169T/K41T/L162R/M171V/P40S/Q125H/Q178H/Q39Y/Q99D/R42S/S66N/T262R/W38E/Y61H)
# ASSAY NOTES: Competitive HLA II/peptide binding assay, HLA-DR13
# CONDITION NOTES: competition with biotinylated tracer; 3 independent experiments; read-out: Binding activity DR13 (IC50)
No end group written: not given here.

// known answers, use as guide
# RESIDUE SEQUENCE, OBSERVED MEASUREMENT
rows = [
    ("LKLDRERAKNKIAKE [102-116, L K L D R E R A K N K I A K E]", "> 100 µM"),
    ("ERMAEAGFIHCPTEN [36-50, E R M A E A G F I H C P T E N]", "> 100 µM"),
]

QUERY: Return reported IC50; argument: EGWEPDDDPIEEHKK [65-79, E G W E P D D D P I E E H K K]
RESULT: > 100 µM

----------
# ASSAY TARGET: HLA-DR13 (DRB1*1301) (Homo sapiens, UniProt P01903+P01911, A100E/A169T/K41T/L162R/M171V/P40S/Q125H/Q178H/Q39Y/Q99D/R42S/S66N/T262R/W38E/Y61H)
# ASSAY NOTES: Competitive HLA II/peptide binding assay, HLA-DR13
# CONDITION NOTES: competition with biotinylated tracer; 3 independent experiments; read-out: Binding activity DR13 (IC50)
pIC50: −log10 of the molar value. No end group written: not given here.
The reader will find reported pIC50 values listed item by item below.

// known answers, use as guide
# RESIDUE SEQUENCE, OBSERVED MEASUREMENT
rows = [
    ("FCFKELEGWEPDDDP [59-73, F C F K E L E G W E P D D D P]", "< 4.00"),
    ("LTLGEFLKLDRERAK [peptide 96-110, L T L G E F L K L D R E R A K]", 6.52),
    ("MGAPTLPPAWQPFLK [1-15, M G A P T L P P A W Q P F L K]", "< 4.00"),
    ("KELEGWEPDDDPIEE [62-76, K E L E G W E P D D D P I E E]", "< 4.00"),
    ("KQFEELTLGEFLKLD [91-105, K Q F E E L T L G E F L K L D]", "< 4.00"),
]

QUERY: Return reported pIC50; argument: AGFIHCPTENEPDLA [peptide 41-55, A G F I H C P T E N E P D L A]
RESULT: < 4.00

QUERY: Return reported pIC50; argument: AKKVRRAIEQLAAMD [peptide 128-142, A K K V R R A I E Q L A A M D]
RESULT: < 4.00

QUERY: Return reported pIC50; argument: LSVKKQFEELTLGEF [87-101, L S V K K Q F E E L T L G E F]
RESULT: < 4.00

QUERY: Return reported pIC50; argument: KKQFEELTLGEFLKL [peptide 90-104, K K Q F E E L T L G E F L K L]
RESULT: < 4.00

----------
# ASSAY TARGET: HLA-DRB4 (DRB4*0101) (Homo sapiens, UniProt P01903+P13762, G164S)
# ASSAY NOTES: Competitive HLA II/peptide binding assay, HLA-DRB4
# CONDITION NOTES: competition with biotinylated tracer; 3 independent experiments
No end group written: not given here.
EXPERIMENTAL ENDPOINT: IC50

// known answers, use as guide
# RESIDUE SEQUENCE, ASSAY TARGET, EXPERIMENTAL ENDPOINT, OBSERVED MEASUREMENT
data = [
    ("KKQFEELTLGEFLKL [peptide 90-104, K K Q F E E L T L G E F L K L]", "HLA-DRB4 (DRB4*0101) (Homo sapiens, UniProt P01903+P13762, G164S)", "IC50", "> 100 µM"),
    ("MGAPTLPPAWQPFLK [1-15, M G A P T L P P A W Q P F L K]", "HLA-DRB4 (DRB4*0101) (Homo sapiens, UniProt P01903+P13762, G164S)", "IC50", "> 100 µM"),
    ("KEFEETAKKVRRAIE [122-136, K E F E E T A K K V R R A I E]", "HLA-DRB4 (DRB4*0101) (Homo sapiens, UniProt P01903+P13762, G164S)", "IC50", "> 100 µM"),
    ("GEFLKLDRERAKNKI [99-113, G E F L K L D R E R A K N K I]", "HLA-DRB4 (DRB4*0101) (Homo sapiens, UniProt P01903+P13762, G164S)", "IC50", "22 µM"),
    ("KQFEELTLGEFLKLD [91-105, K Q F E E L T L G E F L K L D]", "HLA-DRB4 (DRB4*0101) (Homo sapiens, UniProt P01903+P13762, G164S)", "IC50", "> 100 µM"),
]

QUERY: Return reported IC50; argument: EGWEPDDDPIEEHKK [65-79, E G W E P D D D P I E E H K K]
RESULT: > 100 µM

QUERY: Return reported IC50; argument: HRISTFKNWPFLEGC [peptide 17-31, H R I S T F K N W P F L E G C]
RESULT: 7.5 µM

----------
# System: 12 predominant HLA II molecules
# ASSAY NOTES: Binding to the 12 predominant HLA II molecules, summary
# Set-up: species or system human
# CONDITION NOTES: number of the 12 predominant HLA II molecules bound (IC50 < 1000 nM)
Residues, ends and D or L forms follow the SMILES beside them.
The reader will find reported No. of molecules fixed values listed item by item below.
Respond numerically, and do not add a unit to the figure.

// known answers, use as guide
# MOLECULE, No. of molecules fixed
measured = [
    ("CC(C)C[C@H](NC(=O)[C@H](CC(=O)O)NC(=O)[C@@H]1CCCN1)C(=O)N[C@@H](C)C(=O)N[C@@H](CCC(N)=O)C(=O)N[C@@H](CS)C(=O)N[C@@H](Cc1ccccc1)C(=O)N[C@@H](Cc1ccccc1)C(=O)N[C@@H](CS)C(=O)N[C@@H](Cc1ccccc1)C(=O)N[C@@H](CCCCN)C(=O)N[C@@H](CCC(=O)O)C(=O)N[C@@H](CC(C)C)C(=O)N[C@@H](CCC(=O)O)C(=O)NCC(=O)O [52-66, P D L A Q C F F C F K E L E G] (H-PDLAQCFFCFKELEG-OH; N-terminus and C-terminus assumed)", 1),
    ("CC[C@H](C)[C@H](N)C(=O)N[C@@H](CO)C(=O)N[C@H](C(=O)N[C@@H](Cc1ccccc1)C(=O)N[C@@H](CCCCN)C(=O)N[C@@H](CC(N)=O)C(=O)N[C@@H](Cc1c[nH]c2ccccc12)C(=O)N1CCC[C@H]1C(=O)N[C@@H](Cc1ccccc1)C(=O)N[C@@H](CC(C)C)C(=O)N[C@@H](CCC(=O)O)C(=O)NCC(=O)N[C@@H](CS)C(=O)N[C@@H](C)C(=O)N[C@@H](CS)C(=O)O)[C@@H](C)O [peptide 19-33, I S T F K N W P F L E G C A C]", 7),
]

Now for another entry.
QUERY: Provide value of No. of molecules fixed for this record tested with 12 predominant HLA II molecules: CC(C)C[C@H](NC(=O)[C@H](Cc1ccccc1)NC(=O)[C@@H]1CCCN1C(=O)[C@H](CCC(N)=O)NC(=O)[C@H](Cc1c[nH]c2ccccc12)NC(=O)[C@H](C)NC(=O)[C@@H]1CCCN1C(=O)[C@@H]1CCCN1C(=O)[C@H](CC(C)C)NC(=O)[C@@H](NC(=O)[C@@H]1CCCN1)[C@@H](C)O)C(=O)N[C@@H](CCCCN)C(=O)N[C@@H](CC(=O)O)C(=O)N[C@@H](Cc1c[nH]cn1)C(=O)N[C@@H](CCCNC(=N)N)C(=O)O [4-18, P T L P P A W Q P F L K D H R]
RESULT: 1

----------
# ASSAY TARGET: HLA-DR4 (DRB1*0401) (Homo sapiens, UniProt P01903+P01911, A100K/A169T/F76Y/I96L/K127E/L162R/M171V/N62H/P40V/Q125Y/R42H/S133A/S149N/S66Y/V115G/V209L/W38E)
# ASSAY NOTES: Competitive HLA II/peptide binding assay, HLA-DR4
# CONDITION NOTES: competition with biotinylated tracer; 3 independent experiments
No end group written: not given here.
The reader will find reported IC50 values listed item by item below.

// known answers, use as guide
# RESIDUE SEQUENCE, IC50
rows = [
    ("KKQFEELTLGEFLKL [peptide 90-104, K K Q F E E L T L G E F L K L]", "0.748 µM"),
    ("KEFEETAKKVRRAIE [122-136, K E F E E T A K K V R R A I E]", "> 100 µM"),
]

QUERY: Return reported IC50; argument: KELEGWEPDDDPIEE [62-76, K E L E G W E P D D D P I E E]
RESULT: > 100 µM

QUERY: Return reported IC50; argument: MGAPTLPPAWQPFLK [1-15, M G A P T L P P A W Q P F L K]
RESULT: > 100 µM

QUERY: Return reported IC50; argument: LKLDRERAKNKIAKE [102-116, L K L D R E R A K N K I A K E]
RESULT: > 100 µM

QUERY: Return reported IC50; argument: EGWEPDDDPIEEHKK [65-79, E G W E P D D D P I E E H K K]
RESULT: > 100 µM

QUERY: Return reported IC50; argument: DPIEEHKKHSSGCAF [72-86, D P I E E H K K H S S G C A F]
RESULT: > 100 µM

QUERY: Return reported IC50; argument: ERMAEAGFIHCPTEN [36-50, E R M A E A G F I H C P T E N]
RESULT: 17 µM

QUERY: Return reported IC50; argument: AGFIHCPTENEPDLA [peptide 41-55, A G F I H C P T E N E P D L A]
RESULT: 5 µM
